This collection of values is drawn from patent US7790682B1.

# Protocol text: Isothermal equilibrium denaturation in guanidine HCl monitored by CD
# Format: physicochemical
# Condition: GuHCl, 298K, CD signal at 227 nm
Readout type: ΔG0 (kcal/mol)

Molecule	Reading
SYM5/Δ104-106: SYM5 FGF-1 mutant plus Ala103→Gly/ΔGlu104/ΔLys105/ΔAsn106 (protein, UniProt P05230 16-155, looked up, variant L44F L73V V109L L111I C117V A103G del104-106) Fibroblast growth factor 1: FNLPPGNYKKPKLLYCSNGGHFLRILPDGTVDGTRDRSDQHIQFQLSAESVGEVYIKSTETGQYLAMDTDGLVYGSQTPNEECLFLERLEENHYNTYISKKHGWFLGIKKNGSVKRGPRTHYGQKAILFLPLPVSSD	6.05
SYM5/Δ120-122: SYM5 FGF-1 mutant plus Arg119→Gly/ΔGly120/ΔPro121/ΔArg122, SEQ ID NO: 2 (protein, Human FGF-1 mutant SYM5D120-122) FNLPPGNYKKPKLLYCSNGGHFLRILPDGTVDGTRDRSDQHIQFQLSAESVGEVYIKSTETGQYLAMDTDGLVYGSQTPNEECLFLERLEENHYNTYISKKHAEKNWFLGIKKNGSVKGTHYGQKAILFLPLPVSSD	3.97
SYM6/Δ104-106: SYM6 FGF-1 mutant plus Ala103→Gly/ΔGlu104/ΔLys105/ΔAsn106 (protein, UniProt P05230 16-155, looked up, variant A103G E104* K105* N106*, SYM6 background mutations, SYM6 FGF-1 mutant plus Ala103→Gly/ΔGlu104/ΔLys105/ΔAsn106) Fibroblast growth factor 1: FNLPPGNYKKPKLLYCSNGGHFLRILPDGTVDGTRDRSDQHIQLQLSAESVGEVYIKSTETGQYLAMDTDGLLYGSQTPNEECLFLERLEENHYNTYISKKHGWFVGLKKNGSCKRGPRTHYGQKAILFLPLPVSSD	4.9
